- Test Method Notes: Clearance in Sprague-Dawley rat at 5 mg/kg,iv administration measured upto 4 hrs by LC-MS/MS analysis
- Type: ADME, organism-based
- Experimental Context: in vivo
Readout: clearance (mL/min/kg)
State the answer as a number, implicitly in mL/min/kg.

Supply reported clearance belonging to this molecule: `Nc1nc(/C(=N/O[C@@H](C(=O)[O-])C2CCC(F)(F)CC2)C(=O)N[C@@H]2C(=O)N3C(C(=O)O)=C(CSCCNC(=O)c4ccc(O)c(O)c4Cl)CS[C@H]23)cs1.[Na+]`
38.7

====

- System: Pseudomonas aeruginosa
- Test Method Notes: Antibacterial activity against IMP-4 producing multidrug-resistant Pseudomonas aeruginosa clinical isolate 19-17 assessed as inhibition of bacterial growth incubated for 18 to 20 hrs by two fold serial dilution assay
- Assay type: functional
- Experimental Context: time 18-20 hrs
Readout: log10 of MIC (log10 of the value in µg/mL)
The figures below represent log10 of MIC, where MIC is stated in µg/mL.

Query log10 of MIC for Nc1nc(/C(=N/OC(C(=O)O)C2CCCCC2)C(=O)N[C@@H]2C(=O)N3C(C(=O)O)=C(CSCCNC(=O)c4ccc(O)c(O)c4Cl)CS[C@H]23)cs1.O=C(O)C(F)(F)F (stereo not given in full)
-0.30

Consider the compound Nc1nc(/C(=N/OC(C(=O)O)C2CCS(=O)(=O)CC2)C(=O)N[C@@H]2C(=O)N3C(C(=O)O)=C(CSCCNC(=O)c4ccc(O)c(O)c4Cl)CS[C@H]23)cs1.O=C(O)C(F)(F)F (stereo not given in full) and give its recorded log10 of MIC.
0.30

State its log10 of MIC for this compound: Nc1nc(/C(=N/OC(C(=O)O)C2CC2)C(=O)N[C@@H]2C(=O)N3C(C(=O)O)=C(CSCCNC(=O)c4ccc(O)c(O)c4Cl)CS[C@H]23)cs1.O=C(O)C(F)(F)F (stereo not given in full)
0.00

Using known records, supply log10 of MIC for Nc1nc(/C(=N/OC(C(=O)O)C2CCC(F)(F)CC2)C(=O)N[C@@H]2C(=O)N3C(C(=O)O)=C(CSCCNC(=O)c4ccc(O)c(O)c4Cl)CS[C@H]23)cs1.O=C(O)C(F)(F)F (stereo not given in full)
0.00

Note log10 of MIC for the compound shown: `C[C@@](O/N=C(\C(=O)N[C@@H]1C(=O)N2C(C(=O)O)=C(CSCCNC(=O)c3ccc(O)c(O)c3Cl)CS[C@H]12)c1csc(N)n1)(C(=O)O)C(F)(F)F.O=C(O)C(F)(F)F`
-0.30

Please list log10 of MIC recorded for the compound Nc1nc(/C(=N/OC(C(=O)O)C2CCSCC2)C(=O)N[C@@H]2C(=O)N3C(C(=O)O)=C(CSCCNC(=O)c4ccc(O)c(O)c4Cl)CS[C@H]23)cs1.O=C(O)C(F)(F)F (stereo not given in full)
-0.30

Give log10 of MIC for the following compound: Nc1nc(/C(=N/OC(C(=O)O)C2CCCC2)C(=O)N[C@@H]2C(=O)N3C(C(=O)O)=C(CSCCNC(=O)c4ccc(O)c(O)c4Cl)CS[C@H]23)cs1.O=C(O)C(F)(F)F (stereo not given in full)
0.00

Read off the recorded log10 of MIC for `Nc1nc(/C(=N/O[C@H](C(=O)O)C2CCC(F)(F)CC2)C(=O)N[C@@H]2C(=O)N3C(C(=O)O)=C(CSCCNC(=O)c4ccc(O)c(O)c4Cl)CS[C@H]23)cs1.O=C(O)C(F)(F)F`
-0.60

Give a short answer stating reported log10 of MIC for CC1CCC(C(O/N=C(\C(=O)N[C@@H]2C(=O)N3C(C(=O)O)=C(CSCCNC(=O)c4ccc(O)c(O)c4Cl)CS[C@H]23)c2csc(N)n2)C(=O)O)CC1.O=C(O)C(F)(F)F (stereo not given in full) .
-0.30

Answer with the recorded log10 of MIC of Nc1nc(/C(=N/OC(C(=O)O)C2CCC(F)(F)CC2)C(=O)N[C@@H]2C(=O)N3C(C(=O)O)=C(CSCCNC(=O)c4ccc(O)c(O)c4Cl)CS[C@H]23)c(Cl)s1.O=C(O)C(F)(F)F (stereo not given in full) only.
-0.90

Give the reported value of log10 of MIC for this record: `CC(C)(O/N=C(\C(=O)N[C@@H]1C(=O)N2C(C(=O)[O-])=C(C[N+]3(CCNC(=O)c4ccc(O)c(O)c4Cl)CCCC3)CS[C@H]12)c1csc(N)n1)C(=O)O`
-0.30

Dear colleague, please send me the reported log10 of MIC for Nc1nc(/C(=N/OC(C(=O)O)C2CCC(F)(F)CC2)C(=O)N[C@@H]2C(=O)N3C(C(=O)O)=C(CSCCNC(=O)c4ccc(O)c(O)c4Cl)CS[C@H]23)c(Br)s1.O=C(O)C(F)(F)F (stereo not given in full) when you can.
-0.90

Complete the entry with log10 of MIC for `CC(C)[C@@H](O/N=C(\C(=O)N[C@@H]1C(=O)N2C(C(=O)O)=C(CSCCNC(=O)c3ccc(O)c(O)c3Cl)CS[C@H]12)c1csc(N)n1)C(=O)O.O=C(O)C(F)(F)F`
-0.60

Read the entry Nc1nc(/C(=N/OC(C(=O)O)C2CCCCC2)C(=O)N[C@@H]2C(=O)N3C(C(=O)O)=C(CSCCNC(=O)c4ccc(O)c(O)c4Cl)CS[C@H]23)c(Cl)s1.O=C(O)C(F)(F)F (stereo not given in full) and write its reported log10 of MIC.
-0.30

For Nc1nc(/C(=N/OC(C(=O)O)C2CCC(C(F)(F)F)CC2)C(=O)N[C@@H]2C(=O)N3C(C(=O)O)=C(CSCCNC(=O)c4ccc(O)c(O)c4Cl)CS[C@H]23)cs1.O=C(O)C(F)(F)F (stereo not given in full) , write its log10 of MIC.
-0.30

Data provenance: ChEMBL document CHEMBL5543142
